Molecular target: BACE1 (Homo sapiens (Human), UniProt P56817)
Test: In vitro enzymatic BACE1 FRET assay
Type: biochemical
Conditions: read-out: BACE1 Enzyme IC50
Sequence (P56817 46-501): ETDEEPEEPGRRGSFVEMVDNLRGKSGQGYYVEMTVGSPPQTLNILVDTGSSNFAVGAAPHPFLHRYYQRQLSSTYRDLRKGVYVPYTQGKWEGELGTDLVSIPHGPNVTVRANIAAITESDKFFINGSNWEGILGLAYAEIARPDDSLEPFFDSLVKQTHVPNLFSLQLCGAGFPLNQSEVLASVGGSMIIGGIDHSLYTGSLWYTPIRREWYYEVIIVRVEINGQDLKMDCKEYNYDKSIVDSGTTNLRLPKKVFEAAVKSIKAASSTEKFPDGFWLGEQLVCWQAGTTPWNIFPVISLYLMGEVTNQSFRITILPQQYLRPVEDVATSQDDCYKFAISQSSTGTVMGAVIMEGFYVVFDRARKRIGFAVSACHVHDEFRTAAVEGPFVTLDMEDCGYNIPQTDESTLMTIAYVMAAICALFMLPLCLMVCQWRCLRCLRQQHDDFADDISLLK
measuredParameter: log10(IC50) (log10 of the value in µM)
Note the log scale: values are log10 of IC50 expressed in µM.

Some compounds with known log10(IC50) results, for comparison:
Input: Find log10(IC50) (BACE1 (Homo sapiens (Human), UniProt P56817)) for the entry `C#CCOc1cnc(/C(F)=C/c2cnc(F)c([C@]3(C)CS(=O)(=O)C(C)(C)C(N)=N3)c2)cn1`
Output: -2.30

Input: And the next one, `CN1C(N)=N[C@](C)(c2cc(/C=C(\F)c3cc4c(cn3)OCCO4)ccc2F)CS1(=O)=O` ?
Output: -0.76

Input: And the next one, `CC1(C)C(N)=N[C@](C)(c2cc(/C=C(\F)c3cnc(OCCn4cccn4)cn3)ccc2F)CS1(=O)=O` ?
Output: -0.73

Input: And the next one, `CN1C(N)=N[C@](C)(c2cc(/C=C(\F)c3cnc(C4CC4)cn3)ccc2F)CS1(=O)=O` ?
Output: -0.12

Input: And the next one, `CN1C(N)=N[C@](C)(c2cc(/C=C(\F)c3cc(F)c(C#N)cn3)ccc2F)CS1(=O)=O` ?
Output: -2.15

Input: And the next one, `CN1C(N)=N[C@](C)(c2cc(/C=C(\F)c3ccc(Cl)cn3)ccc2F)CS1(=O)=O` ?
Output: -2.52

Next:
Input: Find log10(IC50) (BACE1 (Homo sapiens (Human), UniProt P56817)) for the entry `C[C@@]1(c2cc(/C=C(\F)c3ccc(Cl)cn3)ccc2F)CS(=O)(=O)C2(CCC2)C(N)=N1`
Output: -2.00

---

Target: human recombinant BACE2 (Homo sapiens (Human), UniProt Q9Y5Z0)
Sequence (Q9Y5Z0 63-518): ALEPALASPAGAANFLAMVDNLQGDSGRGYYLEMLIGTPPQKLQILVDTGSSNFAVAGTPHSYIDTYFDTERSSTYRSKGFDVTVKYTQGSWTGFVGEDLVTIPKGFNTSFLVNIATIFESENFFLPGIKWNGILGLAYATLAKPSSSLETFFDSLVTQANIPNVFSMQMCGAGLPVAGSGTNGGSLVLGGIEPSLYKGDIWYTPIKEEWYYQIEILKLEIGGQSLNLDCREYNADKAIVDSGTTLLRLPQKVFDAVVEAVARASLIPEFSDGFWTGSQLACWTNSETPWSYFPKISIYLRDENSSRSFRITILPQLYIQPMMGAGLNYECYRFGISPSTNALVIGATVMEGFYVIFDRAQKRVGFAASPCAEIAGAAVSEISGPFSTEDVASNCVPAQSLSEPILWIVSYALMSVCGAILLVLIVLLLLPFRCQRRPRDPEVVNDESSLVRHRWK
Assay: In vitro enzymatic BACE2 FRET assay
Settings: read-out: BACE2 Enzyme IC50
Reported pIC50 values are given for each entry in this list.
Recall that pIC50 is obtained by taking minus log10 of the concentration measured in molar.

Input: Requested read-out: pIC50. Entry: C[C@]1(c2cc(/C=C(\F)c3cnc(OCC4COC4)cn3)ccc2F)N=C(N)[C@@]2(CF)CC[C@@H]1S2(=O)=O [Example 126]
Output: 6.85

Input: And the next one, C[C@H]1COc2cnc(/C(F)=C/c3ccc(F)c([C@]4(C)CS(=O)(=O)N(C)C(N)=N4)c3)nc2O1 [Example 236] ?
Output: 5.63

Input: And the next one, CC1(C)C(N)=N[C@](C)(c2cc(/C=C(\F)c3cnc(OCC4CCCC4)cn3)ccc2F)CS1(=O)=O [Example 144] ?
Output: 6.84

Input: And the next one, COc1cnc(/C(F)=C/c2ccc(F)c([C@]3(C)CS(=O)(=O)N(C)C(N)=N3)c2)cn1 [Example 241] ?
Output: 7.12

Kindly consider the entry below.
Input: Requested read-out: pIC50. Entry: CC1(C)C(N)=N[C@](C)(c2cc(/C=C(\F)c3cnc(Oc4ccccc4)cn3)ccc2F)CS1(=O)=O [Example 211]
Output: 6.48

---

Reported IC50 values are given for each entry in this list.
Target: BACE1 (Homo sapiens (Human))
Test: In vitro BACE1 cell-based assay (Aβ40 in conditioned medium of cells stably expressing APP, HTRF)
Conditions: Aβ40 in conditioned media after 24 h incubation
Sequence (P56817 46-501, species assumed): as the sequence (P56817 46-501) above

Some molecules with known IC50 results, for comparison:
Input: Requested read-out: IC50. Entry: C#CCOc1cnc(/C(F)=C/c2cnc(F)c([C@]3(C)CS(=O)(=O)C(C)(C)C(N)=N3)c2)cn1 [Example 205]
Output: 7 nM

Input: And the next one, CC#CCOc1cnc(/C(F)=C/c2ccc(F)c([C@@]3(C)N=C(N)[C@@]4(CF)CC[C@@H]3S4(=O)=O)c2)cn1 [Example 137] ?
Output: 4 nM

Input: And the next one, CN1C(N)=N[C@](C)(c2cc(/C=C(\F)c3ccc(C#N)cn3)ccc2F)CS1(=O)=O [Example 106] ?
Output: 2 nM

Input: And the next one, Cc1cc(C#N)cnc1/C(F)=C/c1ccc(F)c([C@]2(C)CS(=O)(=O)C(C)(C)C(N)=N2)c1 [Example 274] ?
Output: 51 nM

Input: And the next one, CC1(C)C(N)=N[C@](C)(c2cc(/C=C(\F)c3ccc(C#N)cn3)cnc2F)CS1(=O)=O [Example 197] ?
Output: 52 nM

Input: And the next one, CC1(C)C(N)=N[C@](C)(c2cc(/C=C(\F)c3cnc(C#N)cn3)ccc2F)CS1(=O)=O [Example 170] ?
Output: 5 nM

Input: And the next one, CC1(C)C(N)=N[C@](C)(c2cc(/C=C(\F)c3ccc(C#N)cn3)cc(F)c2F)CS1(=O)=O [Example 192] ?
Output: 35 nM

Input: And the next one, CC#CCOc1cnc(/C(F)=C/c2ccc(F)c([C@]3(CF)CS(=O)(=O)C(C)(C)C(N)=N3)c2)cn1 [Example 194] ?
Output: 55 nM

Next:
Input: Requested read-out: IC50. Entry: C[C@]1(c2cc(/C=C(\F)c3ccc(C#N)cn3)ccc2F)N=C(N)C2(CF)CC[C@@H]1S2(=O)=O (stereo in doubt) [Example 102]
Output: 17 nM

Input: And the next one, COC[C@H](C)Oc1cnc(/C(F)=C/c2ccc(F)c([C@@]3(C)N=C(N)[C@@]4(CF)CC[C@@H]3S4(=O)=O)c2)cn1 [Example 131] ?
Output: 97 nM

Input: And the next one, CN1C(N)=N[C@](C)(c2cc(/C=C(\F)c3ncc(C(F)(F)F)cc3Cl)ccc2F)CS1(=O)=O [Example 242] ?
Output: 26 nM

Input: And the next one, CC1(C)C(N)=N[C@](C)(c2cc(/C=C(\F)c3ccc(Cl)cn3)ccc2F)CS1(=O)=O [Example 114] ?
Output: 80 nM

Origin of values: patent US11021493B2
